B1: Pistol ribozyme (parent)
chain: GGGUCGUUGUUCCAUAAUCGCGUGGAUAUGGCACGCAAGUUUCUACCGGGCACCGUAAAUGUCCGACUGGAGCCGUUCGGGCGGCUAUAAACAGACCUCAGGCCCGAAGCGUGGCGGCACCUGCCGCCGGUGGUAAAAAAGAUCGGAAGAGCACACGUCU

# Variants of: B1
# ASSAY_PROCEDURE: aptazyme ON/OFF ratio, guanine; higher = stronger switching; co-transcriptional cleavage with and without guanine
EXPERIMENTAL_ENDPOINT: aptazyme ON/OFF ratio
Keep the answer to the number alone.

The examples below pair each entry with its known result.
1. U7A U8C G9A U10G U11G C12A    1.11
2. U7A U8A G9U U10G U11G C12A C13U    1.17
3. U7C U8A G9U U10C U11C    1.01
4. U7C G9C U10G C12U C13G    1.03
5. U7A U8C G9U U10C C13G    1.06

Query string: Could you share which aptazyme ON/OFF ratio value was measured for U7A G9C U11A C13G ?
Result string: 1.08

Query string: Could you share which aptazyme ON/OFF ratio value was measured for G9U U10A U11A C12G C13A ?
Result string: 0.999

Query string: Could you share which aptazyme ON/OFF ratio value was measured for G9C U10C C12G ?
Result string: 1.06

Query string: Could you share which aptazyme ON/OFF ratio value was measured for U7C U8A G9C U10C U11A ?
Result string: 0.786
